Experiment: Half life in CD-1 mouse at 800 mg/kg
Assay type: ADME, organism-based
Design: dose 800 mg/kg
Conditions: in vivo
assay_readout: half-life (min)
Just the number in min, nothing appended.

Data request: Which half-life is reported for this molecule? `Nc1nc(=O)[nH]cc1F`
Data returned: 30

---

Assay: Half life in human
Type: ADME, organism-based
Settings: in vivo
assay_readout: half-life (h)
Just the number in h, nothing appended.

Data request: Which half-life is reported for this compound? Nc1nc(=O)[nH]cc1F [FLUCYTOSINE]
Data returned: 2.5

Every entry's value here was drawn from ChEMBL document CHEMBL1275552.
